- target under test: human recombinant LPA1 Lysophospholipid receptor (Homo sapiens)
- Sequence (Q92633 whole entry): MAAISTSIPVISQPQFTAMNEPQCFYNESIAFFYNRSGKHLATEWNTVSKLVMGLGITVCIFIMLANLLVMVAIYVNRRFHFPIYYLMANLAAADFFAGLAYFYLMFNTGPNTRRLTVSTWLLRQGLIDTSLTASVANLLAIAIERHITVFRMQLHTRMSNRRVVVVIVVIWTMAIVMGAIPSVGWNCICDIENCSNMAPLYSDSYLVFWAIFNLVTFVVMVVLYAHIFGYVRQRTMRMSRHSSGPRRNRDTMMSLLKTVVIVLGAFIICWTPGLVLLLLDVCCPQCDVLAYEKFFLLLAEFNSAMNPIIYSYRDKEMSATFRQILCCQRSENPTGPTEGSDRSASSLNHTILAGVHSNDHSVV
- procedure summary: Calcium flux assay using FLIPR, LPA1 antagonist activity
- cond: ChemiScreen Calcium-optimized stable cell line; antagonist mode, inhibition of agonist-induced calcium flux
pIC50: −log10 of the molar value.
value kind: pIC50

Lookup: Given the entry Cc1nnn(-c2cccc(-c3ccc(CC(=O)O)cc3)c2)c1NC(=O)O[C@H](C)c1ccccc1 , report its measured pIC50.
Found: < 4.52

Lookup: Given the entry Cc1nnn(-c2ccc(-c3ccc(C4(C(=O)O)CC4)cc3)cc2)c1NC(=O)OC(C)C , report its measured pIC50.
Found: < 4.52

Lookup: Given the entry Cc1nnn(-c2cccc(-c3ccc(C4(C(=O)O)CC4)cc3)c2)c1NC(=O)O[C@H](C)c1ccccc1 , report its measured pIC50.
Found: < 4.52
